system.name: T1, KDM4A-DTD N940A (human, UniProt O75164 895-1011, N940A)
T1 sequence: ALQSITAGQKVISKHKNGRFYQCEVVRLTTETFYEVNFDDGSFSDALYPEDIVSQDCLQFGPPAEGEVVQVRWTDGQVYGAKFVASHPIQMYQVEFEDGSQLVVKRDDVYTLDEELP
run.description: FP
No end group written: not given here.

binder: ARTK(Me3)QTARKSTGGK (also: fluorescein label, end not given here) [H3K4me3 peptide, fluorescein-labelled]
Kd / µM: 74.1
